- TESTED SYSTEM: UniProt Q96P20
- Sequence (Q96P20 whole entry): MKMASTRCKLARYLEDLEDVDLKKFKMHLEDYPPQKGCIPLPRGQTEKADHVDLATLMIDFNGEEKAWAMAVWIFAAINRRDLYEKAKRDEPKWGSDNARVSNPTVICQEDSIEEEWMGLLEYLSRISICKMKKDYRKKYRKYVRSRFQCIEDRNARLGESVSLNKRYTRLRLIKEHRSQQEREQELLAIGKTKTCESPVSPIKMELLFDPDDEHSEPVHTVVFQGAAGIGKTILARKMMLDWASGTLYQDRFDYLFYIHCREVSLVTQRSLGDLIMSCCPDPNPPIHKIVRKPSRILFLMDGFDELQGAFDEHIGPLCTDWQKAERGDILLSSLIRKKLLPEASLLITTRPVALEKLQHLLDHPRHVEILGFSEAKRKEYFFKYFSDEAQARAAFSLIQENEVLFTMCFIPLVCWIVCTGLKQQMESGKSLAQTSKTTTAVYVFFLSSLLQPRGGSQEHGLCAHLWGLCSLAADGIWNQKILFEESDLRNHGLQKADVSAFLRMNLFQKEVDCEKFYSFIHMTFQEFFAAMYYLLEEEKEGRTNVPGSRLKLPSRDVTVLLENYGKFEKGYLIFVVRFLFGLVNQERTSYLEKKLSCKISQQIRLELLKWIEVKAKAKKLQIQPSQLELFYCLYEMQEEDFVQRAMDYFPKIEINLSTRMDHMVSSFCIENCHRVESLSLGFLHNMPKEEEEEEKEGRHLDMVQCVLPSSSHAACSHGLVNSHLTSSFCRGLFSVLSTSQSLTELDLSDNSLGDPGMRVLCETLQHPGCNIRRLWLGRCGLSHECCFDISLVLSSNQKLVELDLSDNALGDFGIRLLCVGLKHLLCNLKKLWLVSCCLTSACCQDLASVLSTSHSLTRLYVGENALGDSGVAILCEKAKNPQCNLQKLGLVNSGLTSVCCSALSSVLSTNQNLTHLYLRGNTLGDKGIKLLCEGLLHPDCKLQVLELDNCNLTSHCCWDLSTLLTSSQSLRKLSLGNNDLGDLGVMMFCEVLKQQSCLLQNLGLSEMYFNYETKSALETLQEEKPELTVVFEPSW
MEASURED ENDPOINT: pIC50
pIC50 is a log-scale quantity: -log10 of the concentration expressed in molar.

Problem: Value lookup for pIC50; key = Cn1cc(N(C[C@@H]2CCCO2)S(=O)(=O)NC(=O)Nc2c3c(cc4c2CCC4)CCC3)cn1
Result: 7.96

Just for reference, paper PMC11091978 is where these values come from.
